Give measured self-splicing fitness (ln) for each item. Keep answers brief.
Experiment: self-splicing fitness, log relative to wild type (ln ratio); higher = more splicing; Tetrahymena group I intron in knt gene, E. coli kanamycin selection, DiMSum; sequences stand for … in CUCUCU…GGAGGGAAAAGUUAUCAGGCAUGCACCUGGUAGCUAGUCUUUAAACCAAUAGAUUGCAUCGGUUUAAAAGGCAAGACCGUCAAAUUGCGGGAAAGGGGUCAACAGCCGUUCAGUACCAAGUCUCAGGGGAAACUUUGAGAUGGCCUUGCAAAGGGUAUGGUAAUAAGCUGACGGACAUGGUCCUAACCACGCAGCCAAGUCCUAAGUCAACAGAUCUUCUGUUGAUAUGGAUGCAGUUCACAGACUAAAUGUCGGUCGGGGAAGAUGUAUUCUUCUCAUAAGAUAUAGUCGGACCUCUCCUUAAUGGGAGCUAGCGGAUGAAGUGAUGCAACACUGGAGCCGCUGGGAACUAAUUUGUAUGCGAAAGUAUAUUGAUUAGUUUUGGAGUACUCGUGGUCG;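 also: selection with 25 µg/mL kanamycin versus none on LB agar overnight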
Details: 37 °C
Answers are plain numbers.

// below: answered sequences
Q: Answer with the recorded self-splicing fitness (ln) for the sequence listed here: "AAUAAGCAAUAUUACGGUGA"
Ans: -0.256

Q: Answer with the recorded self-splicing fitness (ln) for the sequence listed here: "CGUCAGCAAUAUUACGAAAC"
Ans: -1.6

// each sequence listed below needs its self-splicing fitness (ln)
1. GCCAAGCAAUAUUACGCGCG
2. GGUCAGCAAUAUUACGCAAC
3. AGCCAGCAAUAUUACGAGCU
4. UGCAAGCAAUAUUACGAGCG
5. AGGAAGCAAUAUUACGCGCU
6. GUAAAGCAAUAUUACGGUGG
7. CUGAAGCAAUAUUACGACAU
8. GGGGAGCAAUAUUACGCACG

Ans:
[-0.932, -0.859, -3, -0.896, -0.788, -1.48, 0.115, -1.44]

// each sequence listed below needs its self-splicing fitness (ln)
1. AAGCAGCAAUAUUACGCCCC
2. GCCAAGCAAUAUUACGAUUC
3. CAUAAGCAAUAUUACGAAGA
4. ACCUAGCAAUAUUACGAGUG
5. CUCUAGCAAUAUUACGGGGU

Ans:
[-0.107, -0.482, -3.15, -0.982, -3.39]

Q: Answer with the recorded self-splicing fitness (ln) for the sequence listed here: "UAGCAGCAAUAUUACGAGAU"
Ans: -3.18
